Test system: PTZ-induced seizures
assay_info: PTZ model of generalised (acute) seizures
Type: in vivo, rat
condition_details: IP 30 min before PTZ; CBDV and 7-OH CBDV 200 mg/kg, CBD and 7-OH CBD 100 mg/kg; n=11; FIG. 1B
Protocol: Male Wistar rats (P24-29; 75-110 g) were used to assess the effects of the cannabinoids listed above on the PTZ model of generalised seizures. […] Animals were observed during experimental procedures, but all analysis was performed offline on recorded video files using The Observer behavioural analysis software (Noldus, Netherlands). […] Differences in latencies and durations were assessed by one-way analysis of variance (ANOVA) with post-hoc Tukey's test. […]
quantity_kind: Mortality

C=C(C)[C@@H]1CCC(C)=C[C@H]1c1c(O)cc(CCCCC)cc1O
reduction in mortality
C=C(C)[C@@H]1CCC(CO)=C[C@H]1c1c(O)cc(CCCCC)cc1O [7-OH-CBD, 7-hydroxy-cannabidiol]
reduction in mortality
